system: YAP; assay: TEAD-LUC activation assay (293A-TEAD-LUC reporter); format: cell-based; conditions: Homo sapiens, Table 3; read-out: TEAD-LUC activation assay EC50
pEC50: −log10 of the molar value.
measurement.name: pEC50

Completed entries (count: 10):
chem.smiles: O=C(NCc1cccs1)c1cc(-c2ccccc2)on1
measurement.name: pEC50
value.reported: < 4.70
//
chem.smiles: O=C(NCCCn1ccnn1)c1n[nH]c2ccccc12
measurement.name: pEC50
value.reported: < 4.70
//
chem.smiles: O=C(NCCCc1nccs1)c1ncc(-c2ccccc2)o1
measurement.name: pEC50
value.reported: < 4.70
//
chem.smiles: O=C(NCCCn1cccc1)c1noc(-c2ccccc2)n1
measurement.name: pEC50
value.reported: < 4.70
//
chem.smiles: O=C(Nc1cccc(-c2nccs2)c1)c1cc(-c2ccccc2)on1
measurement.name: pEC50
value.reported: 4.82
//
chem.smiles: C[C@H](NC(=O)c1cc(-c2ccccc2)on1)c1ccccc1
measurement.name: pEC50
value.reported: < 4.70
//
chem.smiles: CC(F)(F)C(C)(C)NC(=O)c1cc(-c2ccccc2)on1
measurement.name: pEC50
value.reported: < 4.70
//
chem.smiles: O=C(NCCc1c[nH]c2ccccc12)c1cc(-c2ccccc2)on1
measurement.name: pEC50
value.reported: < 4.70
//
chem.smiles: O=C(NCCCn1cccc1)c1cc(-c2ccccc2F)on1
measurement.name: pEC50
value.reported: 5.90
//
chem.smiles: O=C(NCCCn1ccnn1)c1cc(-c2ccc(C(F)(F)F)cc2)on1
measurement.name: pEC50
value.reported: < 4.70

Note pEC50 for the molecule shown: `S=C(NCCn1cccc1)c1cc(-c2ccccc2)on1`
< 4.70

Note pEC50 for the molecule shown: `O=C(NCCCn1ccnn1)c1cc(-c2ccc(F)cc2F)on1`
5.00

Note pEC50 for the molecule shown: `NS(=O)(=O)c1ccc(-c2cc(C(=O)NCCCc3nccs3)no2)cc1`
< 4.70

Note pEC50 for the molecule shown: `CSCCNC(=O)c1cc(-c2ccccc2)on1`
5.63

Note pEC50 for the molecule shown: `O=C(NCCCNc1ccccc1F)c1cc(-c2ccccc2)on1`
< 4.70

Note pEC50 for the molecule shown: `O=C(NCCn1cccc1)c1cc(-c2ccccc2)on1`
5.73

----------
system: YAP; experiment: TEAD-LUC activation assay (293A-TEAD-LUC reporter); format: cell-based; conditions: Homo sapiens, Table 3; read-out: TEAD-LUC activation assay EC50
pEC50: −log10 of the molar value.
measurement.name: pEC50

compound: O=C(NCCCn1ccnn1)c1cc(-c2ccc(F)cc2)on1 [Compound 70]
value.reported: 5.30

P: Cc1ccn(CCCNC(=O)c2cc(-c3ccccc3)on2)c1 [Compound 19]
Q: CN(CCCNC(=O)c1cc(-c2ccccc2)on1)S(C)(=O)=O [Compound 24]
R: O=C(NCCCn1ccnn1)c1cc(-c2cccc(F)c2)on1 [Compound 74]
S: O=C(NCCCn1ccc2ccccc21)c1cc(-c2ccccc2)on1 [Compound 4]
Reorder: pEC50, max to min. Labels, requested order.
S, Q, P, R
(S: 5.85, Q: 5.56, P: 5.29, R: 4.82)

----------
Measured pIC50, listed per entry.
assay: Cytotoxicity in the TEAD-LUC activation assay; details: human
pIC50: −log10 of the molar value.

compound: O=C(NCCCn1cccc1)c1n[nH]c2ccccc12 [Compound 101]
value.reported: < 4.70
--
compound: CN1CCN(CCCNC(=O)c2cc(-c3ccccc3)on2)CC1 [Compound 127]
value.reported: < 4.70

Below: the item to evaluate.
Note pIC50 for the compound shown: O=C(NCCCN1CCOCC1)c1cc(-c2ccccc2F)on1 [Compound 100]
< 4.70
